# tested.target: T1, EsCas13d, nuclease-dead (Eubacterium siraeum, UniProt B0MS50, R295A;H300A;R849A;H854A)
# T1 sequence: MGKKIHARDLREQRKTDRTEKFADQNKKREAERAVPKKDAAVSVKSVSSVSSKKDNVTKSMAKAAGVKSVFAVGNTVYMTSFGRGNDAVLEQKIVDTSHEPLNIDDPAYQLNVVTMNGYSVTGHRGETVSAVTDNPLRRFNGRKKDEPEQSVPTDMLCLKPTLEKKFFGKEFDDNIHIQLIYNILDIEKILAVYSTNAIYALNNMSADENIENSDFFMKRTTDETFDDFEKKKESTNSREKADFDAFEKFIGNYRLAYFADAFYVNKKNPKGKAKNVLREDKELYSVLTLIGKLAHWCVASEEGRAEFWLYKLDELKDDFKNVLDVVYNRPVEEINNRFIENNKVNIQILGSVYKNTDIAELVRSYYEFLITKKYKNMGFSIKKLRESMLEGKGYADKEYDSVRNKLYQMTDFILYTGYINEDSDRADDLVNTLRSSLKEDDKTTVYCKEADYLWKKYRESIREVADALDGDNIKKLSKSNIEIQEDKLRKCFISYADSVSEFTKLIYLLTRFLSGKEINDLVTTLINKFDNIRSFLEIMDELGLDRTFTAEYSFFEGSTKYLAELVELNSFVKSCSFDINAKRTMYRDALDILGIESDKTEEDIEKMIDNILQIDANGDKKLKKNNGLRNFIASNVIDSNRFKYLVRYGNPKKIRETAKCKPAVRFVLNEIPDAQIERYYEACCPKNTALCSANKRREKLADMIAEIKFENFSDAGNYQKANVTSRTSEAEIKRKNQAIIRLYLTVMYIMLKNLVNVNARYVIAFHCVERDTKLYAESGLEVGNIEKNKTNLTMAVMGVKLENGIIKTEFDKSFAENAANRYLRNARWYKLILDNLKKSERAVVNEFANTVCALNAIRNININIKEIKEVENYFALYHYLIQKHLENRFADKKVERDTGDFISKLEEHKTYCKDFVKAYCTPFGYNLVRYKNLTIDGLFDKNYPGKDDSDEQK
# assay: crRNA (strand 1, pre-loaded); Mg2+; 40 mM Tris-HCl pH 7.5, 150 mM NaCl, 6 mM MgCl2, 1 mM DTT, 0.1% Tween-20, 0.2 mg/ml BSA; 25 C; 10 min per concentration, then washed
# condition.label: tags: His6-TwinStrep-SUMO cleaved; N-terminal SNAP kept (SNAP-Surface 488); label: 3' end held by stalled T7 RNA polymerase
pKd: −log10 of the molar value.
recorded.metric: pKd

binder: target 1 MT 5'PFS GAC 3'PFS UUG (mixed) RNA 1: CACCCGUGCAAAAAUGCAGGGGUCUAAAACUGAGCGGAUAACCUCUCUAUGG RNA 2: GGGAAUGGAUCCACAUCUACGAAUUCGACCCAUAGAGAGGUUAUCCGCUCAUUGAGAUCGGAAGAGCACACGU
recorded.metric: pKd
quantitative.result: 7.84

binder: target 3 insC 3' of 4,insA 3' of 4 (mixed) RNA 1: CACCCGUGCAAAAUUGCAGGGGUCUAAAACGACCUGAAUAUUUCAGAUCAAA RNA 2: GGGAAUGGAUCCACAUCUACGAAUUCGUUUUUGAUCUGAAAUAUUCAGCAGUCUGCAGAUCGGAAGAGCACACGU
recorded.metric: pKd
quantitative.result: 7.66

binder: target 2 MT 5'PFS GUA 3'PFS AUU (mixed) RNA 1: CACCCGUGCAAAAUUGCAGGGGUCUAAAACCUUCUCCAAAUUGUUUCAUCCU RNA 2: GGGAAUGGAUCCACAUCUACGAAUUCGUAAGGAUGAAACAAUUUGGAGAAGAUUAGAUCGGAAGAGCACACGU
recorded.metric: pKd
quantitative.result: 8.17

binder: target 1 insU 3' of 12,insA 3' of 6 (mixed) RNA 1: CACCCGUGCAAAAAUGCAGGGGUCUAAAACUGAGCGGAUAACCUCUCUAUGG RNA 2: GGGAAUGGAUCCACAUCUACGAAUUCGUACCAUAGAGAGGUUUAUCCAGCUCACCGAGAUCGGAAGAGCACACGU
recorded.metric: pKd
quantitative.result: 8.07
